run.description: DNDI: Protein binding in dog plasma
Type: ADME, cell-free, Canis lupus familiaris
test.context: read-out: % bound
recorded.endpoint: fraction unbound

[[record]]
smiles_repr = "FC(F)(F)c1ccc(N(c2cccnc2)C2CCN(c3ccc(C(F)(F)F)cn3)CC2)cc1"
measured = 0.01


---

run.description: DNDI: Solubility in 0.01M HCl at pH 2 determined by nephelometry
Quick reference for solubility kinetic among some compounds
recorded.endpoint: solubility kinetic (µg/mL)

[[record]]
compound = "FC(F)(F)c1ccc(N(c2cccnc2)C2CCN(Cc3ccccc3C(F)(F)F)CC2)cc1"
recorded_endpoint = "solubility kinetic"
uom = "µg/mL"
inequality_sign = ">"
measured = 100

[[record]]
compound = "COc1ccc(CN2CCC(N(c3ccc(C(F)(F)F)cc3)c3cccnc3)CC2)cc1"
recorded_endpoint = "solubility kinetic"
uom = "µg/mL"
inequality_sign = ">"
measured = 100

[[record]]
compound = "CCC(C(C)O)N1CCC(N(c2ccc(C(F)(F)F)cc2)c2cccnc2)CC1 (stereo not given)"
recorded_endpoint = "solubility kinetic"
uom = "µg/mL"
inequality_sign = ">"
measured = 100

[[record]]
compound = "N#Cc1cc(C(F)(F)F)ccc1N1CCC(N(c2ccc(Cl)cc2)c2cccnc2)CC1"
recorded_endpoint = "solubility kinetic"
uom = "µg/mL"
inequality_sign = "="
measured = 25

[[record]]
compound = "N#Cc1ccc(N2CCC(N(c3ccc(C(F)(F)F)cc3)c3cccnc3)CC2)cc1"
recorded_endpoint = "solubility kinetic"
uom = "µg/mL"
inequality_sign = "="
measured = 50

